Test system: pupil diameter
Assay: Influence on pupil diameter of mice (mydriatic effect)
Assay type: in vivo, ICR mice, male
Details: 30 mg/kg, oral, 30 minutes
Please note: Rate of pupil dia. (pre. = 1) exactly at 1 is 0 (no). Only values below 1 get 1 (yes).

>>> class_label("CN1CCN(CC(=O)N2c3ccccc3C(=O)Nc3cccnc32)CC1 [Pirenzepine, reference compound]")
"0 (no)"
>>> class_label("CN(C)S(=O)(=O)c1ccc2c(c1)N(CC13CCCN1CCC3)c1ccccc1S2")
"0 (no)"
>>> class_label("c1ccc2c(c1)Sc1ccccc1N2CC12CCCN1CCC2")
"0 (no)"
>>> class_label("c1ccc2c(c1)Sc1ccccc1N2CCC12CCCN1CCC2")
"0 (no)"
>>> class_label("O=C1Nc2cccnc2N(C(=O)C23CCCN2CCC3)c2ccccc21")
"1 (yes)"

---

Test system: pupil diameter
Test: Influence on pupil diameter of mice (mydriatic effect)
Type: in vivo, ICR mice, male
Details: 30 mg/kg, oral, 30 minutes; Atropine (1 mg/kg) = 1.00
Method: (Influence on pupil diameter of mice) Some pyrrolizidine compounds according to the invention were tested to evaluate their influence on the pupil diameter of mice, in comparison with Pirenzepine and Atropine as controls. The animals were deprived of food for 18 hours prior to the test. After 30 minutes from oral administration of the compounds, the pupil width was measured by a micrometer. Results are shown in following Table 3 in terms of ratio of pupil diameter and mydriatic effect.
Ratio of mydriasis values, listed per item
PARAMETER: Ratio of mydriasis

>>> assay_result("CN(C)S(=O)(=O)c1ccc2c(c1)N(CC13CCCN1CCC3)c1ccccc1S2 [Example 3]")
0.23
>>> assay_result("c1ccc2c(c1)Sc1ccccc1N2CCC12CCCN1CCC2 [Example 2]")
0.98
>>> assay_result("c1ccc2c(c1)Sc1ccccc1N2CC12CCCN1CCC2 [Example 1]")
0.57
>>> assay_result("CN1CCN(CC(=O)N2c3ccccc3C(=O)Nc3cccnc32)CC1 [Pirenzepine, reference compound]")
0.72
>>> assay_result("O=C1Nc2cccnc2N(C(=O)C23CCCN2CCC3)c2ccccc21 [Example 5]")
0.19

---

System: aspirin induced gastric ulcer
Assay: Aspirin ulcer in rats (pylorus ligated)
Type: in vivo, Sprague-Dawley rats, male
Conditions: Rattus norvegicus; oral; concentration of inhibitor which gives 50% inhibition; read-out: ED50
The entries below come with measured ED50 values attached.
PARAMETER: ED50 (mg/kg)

>>> assay_result("O=C1Nc2cccnc2N(C(=O)C23CCCN2CCC3)c2ccccc21")
27.9
>>> assay_result("CN1CCN(CC(=O)N2c3ccccc3C(=O)Nc3cccnc32)CC1 [Pirenzepine, reference compound]")
23.7

---

System: aspirin induced gastric ulcer
Test: Aspirin ulcer in rats (pylorus ligated)
Format: in vivo, Sprague-Dawley rats, male
Conditions: Rattus norvegicus; oral; concentration of inhibitor which gives 50% inhibition; read-out: ED50
PARAMETER: ED50

>>> assay_result("c1ccc2c(c1)Sc1ccccc1N2CC12CCCN1CCC2")
"< 10 mg/kg"
>>> assay_result("CN(C)S(=O)(=O)c1ccc2c(c1)N(CC13CCCN1CCC3)c1ccccc1S2")
"> 100 mg/kg"
>>> assay_result("c1ccc2c(c1)Sc1ccccc1N2CCC12CCCN1CCC2")
"< 10 mg/kg"
